Target: T1, human GLP-1 receptor (human), P43220
T1 chain: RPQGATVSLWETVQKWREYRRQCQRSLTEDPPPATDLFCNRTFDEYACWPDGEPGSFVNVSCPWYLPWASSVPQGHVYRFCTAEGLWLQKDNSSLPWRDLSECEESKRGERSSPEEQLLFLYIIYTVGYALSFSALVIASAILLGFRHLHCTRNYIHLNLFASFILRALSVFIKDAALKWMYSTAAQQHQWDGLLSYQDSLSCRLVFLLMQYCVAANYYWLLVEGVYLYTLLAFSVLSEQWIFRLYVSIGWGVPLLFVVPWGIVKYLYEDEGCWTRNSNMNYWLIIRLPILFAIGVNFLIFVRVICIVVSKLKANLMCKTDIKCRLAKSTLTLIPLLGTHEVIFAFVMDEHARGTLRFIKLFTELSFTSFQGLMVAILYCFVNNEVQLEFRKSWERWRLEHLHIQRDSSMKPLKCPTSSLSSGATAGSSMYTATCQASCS
Experiment: cell-based or functional assay
*1 amine or outer side, *2 acyl side, *3 side chain or, on linkers, in order; H or OH if unused. Where no end group is shown, it is not given here. Side-chain parts run from the residue outwards. [ ]: non-standard residue; d: D form. The star is where a group is joined. C20 diacid = O=C(O)CCCCCCCCCCCCCCCCCCC(=O)*; γGlu = O=C(O)[C@H](CCC(=O)[*:2])N[*:1]; αMeL = CC(C)C[C@](C)(N)C(=O)O; AEEA = NCCOCCOCC(=O)O; Aib = CC(C)(N)C(=O)O
Can you tell me cAMP EC50 (0.1% casein) for the items I'm about to list?
Entry rule: numbers only, all in pM.

Request: State the recorded cAMP EC50 (0.1% casein) for this entry: Y[Aib]QGTFTSDYSI[αMeL]LDKK([AEEA-AEEA-γGlu-C20 diacid])AAQAFIEYLLEGGPSSGAPPPS-NH2 [Example 6]
Response: 142

Request: Given Y[Aib]QGTFTSDYSILLDKK([AEEA-γGlu-C20 diacid])AQ[Aib]AFIEYLLEGGPSSGAPPPS-NH2 [Example 18] , state its recorded cAMP EC50 (0.1% casein).
Response: 141

Request: Please look up its cAMP EC50 (0.1% casein): Y[Aib]QGTFTSDYSI[αMeL]LDKK([AEEA-γGlu-C20 diacid])AQHAFIEYLLEGGPSSGAPPPS-NH2 [Example 10]
Response: 143
